- System: muMax20 (Max(13-93) K31hArg/K57hArg, M65Nle)
- TEST PROTOCOL: PBM 8-mer E-score (E-score (rank enrichment, -0.5 to 0.5)); higher = stronger preferential binding
In all, about 33,000 sequences were measured (“E-score (rank enrichment, -0.5 to 0.5)”: median about -0.0068, highest 2% from about 0.24 on). What follows is part of a selection rich in the highest values, with near analogues and random picks from the rest.
MEASURED ATTRIBUTE: PBM 8-mer E-score

residues=GAATCCAC quantitative_readout=0.0142
residues=CCGTGTCA quantitative_readout=-0.0799
residues=CTGTGGGA quantitative_readout=-0.0483
residues=TTCCCGAA quantitative_readout=-0.0933
residues=GGATGGGA quantitative_readout=0.00739
residues=ACGTGTCA quantitative_readout=0.278
residues=CGAACAGA quantitative_readout=-0.107
residues=TACTGTGA quantitative_readout=0.0496
residues=CCAAGTGG quantitative_readout=-0.154
residues=CACATGTG quantitative_readout=0.418
residues=CGTCTACA quantitative_readout=-0.0683
residues=CACATGCG quantitative_readout=0.172
residues=TCGAGGAA quantitative_readout=-0.0274
residues=AAGTGTCG quantitative_readout=0.0406
residues=AAGTGTCT quantitative_readout=0.0152
residues=GGAATAGA quantitative_readout=0.0778
residues=ACAATCAT quantitative_readout=0.273
residues=ATGTTGTA quantitative_readout=0.284
residues=AACATGCA quantitative_readout=0.206
residues=CATCCGGC quantitative_readout=-0.291
residues=ACCTTGTA quantitative_readout=0.238
residues=ACAATAAA quantitative_readout=0.275
residues=ACGTGTCC quantitative_readout=0.166
residues=TGGGAAAA quantitative_readout=0.0021
residues=CCAATAAA quantitative_readout=0.266
residues=GCAATAAA quantitative_readout=0.0786
residues=AACTGGCG quantitative_readout=-0.0858
residues=CCAATAAG quantitative_readout=-0.0178
residues=ATGGCATG quantitative_readout=0.0857
residues=AACATGAA quantitative_readout=0.0865
residues=ACAATAAG quantitative_readout=0.21
residues=AGAATAAT quantitative_readout=0.116
residues=AACATGTC quantitative_readout=0.12
residues=TCAATAAA quantitative_readout=0.114
residues=AAATTGTT quantitative_readout=0.136
residues=TACATGTA quantitative_readout=0.157
residues=CACATGTC quantitative_readout=0.12
residues=AACAGGGA quantitative_readout=0.0422
residues=AACATGTT quantitative_readout=0.22
residues=AGGTCCTA quantitative_readout=-0.128
residues=ACGTGTCT quantitative_readout=0.326
residues=CAGTCCGG quantitative_readout=-0.297
residues=ACCTATCA quantitative_readout=0.0576
residues=ACGGTTCA quantitative_readout=-0.138
residues=AGAAAGAT quantitative_readout=0.061
residues=CCGTGTCG quantitative_readout=-0.166
